STUDY_TARGET: T1, PACAP38 (human, not fully specified)
T1 construct: The background says natural PACAP is alpha-amidated
T1 peptide: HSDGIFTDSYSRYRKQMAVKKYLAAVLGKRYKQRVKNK
ASSAY_PROCEDURE: SPR (Biacore), 37 C, antibody captured via anti-human Fc, peptide analyte
Listed next: entries and their corresponding Kd.
Record the value in nM, omitting the unit from your answer.

609C (antibody, V domains shown) VH: EVQLVQSGAEVKKPGSSVKVSCKASGGTFSDLYMHWVRQAPGQGLEWMGLIYPIFADTRYAQKFQGRVTITADESTSTAYMELSSLRSEDTAVYYCAIDQDGSFAYWGQGTLVTVSS VL: DIVMTQSPDSLAVSLGERATINCKSSQSLLDADGKTYLNWLQQKPGQPPKRLIYWASTRESGVPDRFSGSGSGTDFTLTISSLQAEDVAVYYCWQGTWFDLTFGGGTKVEIKR ... 0.0228

Here's the next entry for you.
Note down Kd recorded for 627C (antibody, V domains shown) VH: EVQLVQSGAEVKKPGSSVKVSCKASGGTFSDVYMHWVRQAPGQGLEWMGLIYPIFADTRYAQKFQGRVTITADESTSTAYMELSSLRSEDTAVYYCAIDQDGSFAYWGQGTLVTVSS VL: DIVMTQSPDSLAVSLGERATINCKSSQSLLDSDGKTYLNWLQQKPGQPPKRLIYWASTRESGVPDRFSGSGSGTDFTLTISSLQAEDVAVYYCWQGTWFDLTFGGGTKVEIKR
0.0376
